Molecular target: β3-AR (Homo sapiens, UniProt P13945)
Construct: Full-length β3-AR clones (402 amino acids) containing the last 6 amino acids of hβ3-AR are prepared
Sequence (P13945 whole entry): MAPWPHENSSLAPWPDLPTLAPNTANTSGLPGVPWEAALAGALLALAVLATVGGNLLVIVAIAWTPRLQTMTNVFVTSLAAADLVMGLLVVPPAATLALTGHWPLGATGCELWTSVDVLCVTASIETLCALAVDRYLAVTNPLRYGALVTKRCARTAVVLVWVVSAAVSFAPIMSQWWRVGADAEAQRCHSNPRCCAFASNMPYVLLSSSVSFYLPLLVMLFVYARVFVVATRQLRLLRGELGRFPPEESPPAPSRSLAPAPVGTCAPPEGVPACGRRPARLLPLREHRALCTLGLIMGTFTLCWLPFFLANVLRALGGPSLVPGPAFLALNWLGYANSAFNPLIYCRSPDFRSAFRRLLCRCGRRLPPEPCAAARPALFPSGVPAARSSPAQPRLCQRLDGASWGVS
Test: cAMP accumulation (SPA) in CHO cells transfected with β3-AR
Conditions: CHO cells transfected with human β3-AR, cAMP, 30 min incubation, 10^-9 to 10^-5 M
Metric name: EC50
Answer shape: numeric part, then the unit.

Here are 2 molecules together with their reported answers.
1) COC(=O)CC1Cc2ccc(-c3ccc(CNC[C@H](O)c4ccc(O)c(NS(C)(=O)=O)c4)cc3)cc2NC1=O (stereo partly drawn) :: 40 nM
2) COC(=O)CC1Cc2ccc(-c3cccc(CNC[C@H](O)c4ccc(O)c(NS(C)(=O)=O)c4)c3)cc2NC1=O (stereo partly drawn) :: 60 nM

EC50 measured on CCOC(=O)CC1Cc2cc(-c3cccc(CNC[C@H](O)c4ccc(O)c(NS(C)(=O)=O)c4)c3)ccc2NC1=O (stereo partly drawn) = 90 nM
